System: P. aeruginosa strain PA01 biofilm
Assay: Antibiotic susceptibility of biofilm population (MBEC), NCCLS assay
Format: cell-based
Settings: PA01 biofilm, without neutrophils
Each entry below carries its reported MBEC.

Solved entries:
>>> endpoint_result("CC(C)(O/N=C(\\C(=O)N[C@@H]1C(=O)N2C(C(=O)[O-])=C(C[n+]3ccccc3)CS[C@H]12)c1csc(N)n1)C(=O)O")
">1024 µg/mL"
>>> endpoint_result("O=C(O)c1cn(C2CC2)c2cc(N3CCNCC3)c(F)cc2c1=O")
"512 µg/mL"
>>> endpoint_result("CC[C@H]1OC(=O)[C@H](C)[C@@H](O[C@H]2C[C@@](C)(OC)[C@@H](O)[C@H](C)O2)[C@H](C)[C@@H](O[C@@H]2O[C@H](C)C[C@H](N(C)C)[C@H]2O)[C@](C)(O)C[C@@H](C)CN(C)[C@H](C)[C@@H](O)[C@]1(C)O")
">1024 µg/mL"

Could you now look at the following compound, please?
Any idea what its MBEC is? The compound is NC[C@H]1O[C@H](O[C@H]2[C@H](O)[C@@H](O[C@H]3O[C@H](CO)[C@@H](O)[C@H](N)[C@H]3O)[C@H](N)C[C@@H]2N)[C@H](N)C[C@@H]1O
>1024 µg/mL
